Taken from paper PMC9019904.

- Tested on: BV2 (mouse microglia) cell line
- Protocol Summary: pHrodo-myelin phagocytosis/cell viability high content imaging assay: viability (cell count, nuclear area, nuclear intensity)
- Conditions Used: BV2 cells, 10 uM compound, 48 hours treatment
Readout Type: 3. Nuclear DNA Intensity (% control)
Provide only the numeric value, understood in % control.

Known results for compounds:
Compound	Unit Of Measurement	3. Nuclear DNA Intensity (% control)
COc1cc(Nc2ncc(F)c(Nc3ccc4c(n3)N(COP(=O)([O-])[O-])C(=O)C(C)(C)O4)n2)cc(OC)c1OC.[Na+].[Na+] [UNC10302863A]	% control	22.9
CCn1c(=O)/c(=C2\Sc3ccccc3N2C)s/c1=C\c1ccccn1 [UNC10302975A]	% control	108.3
CO[C@H]1C[C@@H]2CC[C@@H](C)[C@@](O)(O2)C(=O)C(=O)N2CCCC[C@H]2C(=O)O[C@H]([C@H](C)C[C@@H]2CC[C@@H](O)[C@H](OC)C2)CC(=O)[C@H](C)/C=C(\C)[C@@H](O)[C@@H](OC)C(=O)[C@H](C)C[C@H](C)/C=C/C=C/C=C/1C [UNC10302852A]	% control	98.8

Would you mind telling me what 3. Nuclear DNA Intensity (% control) value was observed for Cl.NC(=O)c1cnc(N[C@@H]2CCCC[C@@H]2N)nc1Nc1cccc(-n2nccn2)c1 [UNC10302682A] ? 42.1

Which 3. Nuclear DNA Intensity (% control) reading was recorded for the compound CC(C)(C(=O)O)c1ccc(C(O)CCCN2CCC(C(O)(c3ccccc3)c3ccccc3)CC2)cc1.Cl (stereo not drawn) [UNC10100548A] ? 104.0

I'd like to know its 3. Nuclear DNA Intensity (% control). The compound in question is COc1cc(/C=C/c2ccc(NC(=O)/C=C/c3cc(OC)c(OC)c(OC)c3)cc2)cc(OC)c1 [UNC10302905A] 130.4
